# measured.on: PSMA-expressing C4-2 cells (Homo sapiens)
# Construct: PSMA-expressing C4-2 cells (ATCC, Cat. No. CRL-3314) were cultured in RPMI-1640; host or cells: C4-2 cells
# Sequence (Q04609 whole entry): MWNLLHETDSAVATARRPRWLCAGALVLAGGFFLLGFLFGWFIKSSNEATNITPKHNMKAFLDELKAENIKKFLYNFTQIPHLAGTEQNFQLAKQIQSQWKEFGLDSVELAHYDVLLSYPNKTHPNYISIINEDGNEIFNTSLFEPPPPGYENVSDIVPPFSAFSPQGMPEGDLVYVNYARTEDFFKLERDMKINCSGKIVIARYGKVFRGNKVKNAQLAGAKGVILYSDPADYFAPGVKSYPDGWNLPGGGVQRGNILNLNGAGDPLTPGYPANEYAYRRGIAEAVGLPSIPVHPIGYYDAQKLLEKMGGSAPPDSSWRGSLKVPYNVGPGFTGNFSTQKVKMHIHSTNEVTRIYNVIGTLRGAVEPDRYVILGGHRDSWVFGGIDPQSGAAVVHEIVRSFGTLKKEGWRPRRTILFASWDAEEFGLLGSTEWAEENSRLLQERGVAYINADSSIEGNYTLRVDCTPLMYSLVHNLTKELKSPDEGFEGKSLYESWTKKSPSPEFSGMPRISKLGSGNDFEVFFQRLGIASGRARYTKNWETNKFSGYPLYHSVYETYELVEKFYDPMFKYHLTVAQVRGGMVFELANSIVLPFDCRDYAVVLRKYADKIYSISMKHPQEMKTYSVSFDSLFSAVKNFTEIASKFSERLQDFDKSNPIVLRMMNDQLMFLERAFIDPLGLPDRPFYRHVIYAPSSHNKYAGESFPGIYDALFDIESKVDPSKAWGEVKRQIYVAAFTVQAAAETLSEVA
# experimental.details: FACS binding assay (competition with 50 nM PSM-0183)
# assay.context: FACS binding, C4-2 cells, competition with 50 nM PSM-0183; category; read-out: pIC50 [C4-2] CAT (converted)
Bridge positions count the residues as written; N and C are the ends. Square brackets hold non-standard residues; d marks the D form. Side chains are listed from the residue outwards. Peptide text beside a SMILES is read from it. * marks the point of attachment. DOTA = O=C(O)CN1CCN(CC(=O)O)CCN(CC(=O)*)CCN(CC(=O)O)CC1; Phe(3-Cl) = N[C@@H](Cc1cccc(Cl)c1)C(=O)O; Tle = CC(C)(C)[C@H](N)C(=O)O; AEEA = NCCOCCOCC(=O)O; Aib = CC(C)(N)C(=O)O
property.label: IC50

Kindly indicate its recorded IC50. Item: CC(=O)N[C@H](C(=O)NC(C)(C)C(=O)N[C@@H](Cc1cccc(Cl)c1)C(=O)N[C@H]1CSSC[C@@H](C(=O)N[C@H](C(=O)N[C@H](C(N)=O)[C@@H](C)O)C(C)(C)C)NC(=O)[C@H](CC(N)=O)NC(=O)[C@H](CCCCNC(=O)COCCOCCNC(=O)CN2CCN(CC(=O)O)CCN(CC(=O)O)CCN(CC(=O)O)CC2)NC(=O)[C@H](CCCNC(=N)N)NC(=O)[C@H](CCCCN)NC1=O)[C@@H](C)O [PSM-0243] (Ac-T[Aib][Phe(3-Cl)]CKRK([AEEA-DOTA])NC[Tle]T-NH2; disulfide 4-9)
< 200 nM
